system_under_test: human DGKζ (Homo sapiens, UniProt Q13574)
Construct: TVMV protease cleavage site (C); Hexa-His (C); made in house; host or cells: Sf9 insect cells (baculovirus, Bac-to-Bac)
Sequence (Q13574 with tags, fused parts or gaps isoform Q13574-4): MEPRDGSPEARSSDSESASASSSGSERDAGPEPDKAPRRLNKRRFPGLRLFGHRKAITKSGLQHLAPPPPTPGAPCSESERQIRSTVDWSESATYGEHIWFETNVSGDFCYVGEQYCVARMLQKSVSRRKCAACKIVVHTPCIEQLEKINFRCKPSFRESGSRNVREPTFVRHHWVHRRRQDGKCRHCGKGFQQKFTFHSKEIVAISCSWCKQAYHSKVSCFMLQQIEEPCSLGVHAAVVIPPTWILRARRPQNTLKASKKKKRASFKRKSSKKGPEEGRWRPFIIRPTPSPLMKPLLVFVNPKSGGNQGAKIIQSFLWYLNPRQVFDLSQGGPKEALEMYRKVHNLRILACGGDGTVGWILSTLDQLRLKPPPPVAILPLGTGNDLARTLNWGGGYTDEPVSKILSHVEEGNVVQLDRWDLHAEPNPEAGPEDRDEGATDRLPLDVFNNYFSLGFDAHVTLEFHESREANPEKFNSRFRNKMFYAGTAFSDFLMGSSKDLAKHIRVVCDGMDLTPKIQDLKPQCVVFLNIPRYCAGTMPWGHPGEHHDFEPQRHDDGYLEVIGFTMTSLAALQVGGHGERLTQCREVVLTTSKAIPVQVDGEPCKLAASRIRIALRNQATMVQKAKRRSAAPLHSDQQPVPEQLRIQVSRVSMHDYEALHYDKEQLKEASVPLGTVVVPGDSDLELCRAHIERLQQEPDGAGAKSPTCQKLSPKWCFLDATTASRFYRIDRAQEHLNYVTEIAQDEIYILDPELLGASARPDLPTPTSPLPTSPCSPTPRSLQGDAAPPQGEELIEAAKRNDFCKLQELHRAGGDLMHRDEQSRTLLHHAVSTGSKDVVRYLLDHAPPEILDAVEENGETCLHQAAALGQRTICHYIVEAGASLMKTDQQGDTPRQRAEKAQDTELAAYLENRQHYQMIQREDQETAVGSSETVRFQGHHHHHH
assay_procedure: DGKζ LIPGLO assay (extruded liposome substrate), in vitro DGK inhibition
Assay type: biochemical
conditions_used: liposome (LIPGLO) assay; read-out: DGKz LIPGLO IC50
pIC50: −log10 of the molar value.
parameter: pIC50

// known answers, use as guide
CC[C@@H]1CN(c2cc(=O)n(C)c3ccc(C#N)nc23)[C@@H](C)CN1Cc1ccc(OC(F)(F)F)cc1OC
6.17
CC[C@H]1CN(C(c2cccc(F)c2)c2ccc(C)cn2)[C@H](C)CN1c1cc(=O)n(C)c2ccc(C#N)nc12 (single isomer, unassigned) [Example 1126]
5.52

A = CC1CN(c2cc(=O)n(C)c3ccc(C#N)nc23)CC(C)N1C(c1ccc(F)cc1)c1ccc(F)cc1 (stereo not drawn)
B = C[C@@H]1CN(c2cc(=O)n(C)c3ccc(C#N)nc23)[C@@H](C)CN1C(c1ccc(F)cc1)c1cccc(S(C)(=O)=O)c1 (single isomer, unassigned) [Example 688]
C = Cc1ccc(C(c2ccc(Cl)cc2)N2C[C@H](C)N(c3cc(=O)n(C)c4ccc(C#N)nc34)C[C@H]2C)cc1 (single isomer, unassigned) [Example 247]
D = CC(c1ccc(F)cc1)N1C[C@H](C)N(c2cc(=O)n(C)c3ccc(C#N)nc23)C[C@H]1C (single isomer, unassigned) [Example 309]
## Task Rank the 4 compounds: largest pIC50 first, smallest last. Output spec: labels arranged per the requested ranking.
## Result C, D, A, B

---

system_under_test: human DGKα (Homo sapiens)
Construct: TVMV protease cleavage site (C); Hexa-His (C); made in house; host or cells: Sf9 insect cells (baculovirus, Bac-to-Bac)
Sequence (P23743 with tags, fused parts or gaps): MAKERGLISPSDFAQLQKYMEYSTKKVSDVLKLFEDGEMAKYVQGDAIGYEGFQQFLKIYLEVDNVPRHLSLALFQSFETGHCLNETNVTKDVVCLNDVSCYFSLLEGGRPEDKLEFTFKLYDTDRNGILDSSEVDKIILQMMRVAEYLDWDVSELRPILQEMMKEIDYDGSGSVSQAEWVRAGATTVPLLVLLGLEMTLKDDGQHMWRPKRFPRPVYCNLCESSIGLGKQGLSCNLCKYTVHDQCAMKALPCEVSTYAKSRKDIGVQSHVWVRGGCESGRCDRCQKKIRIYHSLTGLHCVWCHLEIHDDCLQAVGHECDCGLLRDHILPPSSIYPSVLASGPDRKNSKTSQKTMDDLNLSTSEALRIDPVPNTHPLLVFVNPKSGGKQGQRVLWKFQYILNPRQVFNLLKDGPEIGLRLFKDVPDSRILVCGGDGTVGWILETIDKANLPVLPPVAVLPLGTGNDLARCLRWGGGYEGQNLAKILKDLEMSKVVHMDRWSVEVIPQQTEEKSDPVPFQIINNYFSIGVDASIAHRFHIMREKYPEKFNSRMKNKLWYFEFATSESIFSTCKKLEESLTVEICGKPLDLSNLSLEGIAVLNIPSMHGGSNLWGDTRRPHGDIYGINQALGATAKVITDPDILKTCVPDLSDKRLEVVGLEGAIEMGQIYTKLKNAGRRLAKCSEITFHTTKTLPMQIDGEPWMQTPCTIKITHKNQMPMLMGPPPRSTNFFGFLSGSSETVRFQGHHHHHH
assay_procedure: DGKα LIPGLO assay (extruded liposome substrate), in vitro DGK inhibition
Type: biochemical
conditions_used: liposome (LIPGLO) assay; read-out: DGKa LIPGLO IC50
pIC50: −log10 of the molar value.
parameter: pIC50

A = COC(=O)C1CN(c2cc(=O)n(C)c3ccc(C#N)nc23)CCN1C(c1ccc(F)cc1)c1ccc(F)cc1OC (single isomer, unassigned) [Example 70]
B = CC(C)c1ccc(C(C)N2C[C@H](C)N(c3cc(=O)n(C)c4ccc(C#N)nc34)C[C@H]2C)cc1 (single isomer, unassigned) [Example 1233]
C = C[C@@H]1CN(c2cc(=O)n(C)c3ccc(C#N)nc23)CCN1C(c1ccc(F)cc1)c1ccc(F)cc1
## Task Quick one: which order do the items above go in by pIC50, smallest to largest? Answer format: list of labels, ordered as asked.
## Result A, C, B
(A: 3.66, C: 5.34, B: 6.54)

---

system_under_test: human DGKα (Homo sapiens)
Construct: TVMV protease cleavage site (C); Hexa-His (C); made in house; host or cells: Sf9 insect cells (baculovirus, Bac-to-Bac)
assay_procedure: DGKα LIPGLO assay (extruded liposome substrate), in vitro DGK inhibition
Type: biochemical
conditions_used: DGKα liposome (LIPGLO) assay; read-out: DGKa LIPGLO IC50
pIC50: −log10 of the molar value.
parameter: pIC50

CC(c1ccc(C(F)(F)F)cc1)N1CCN(c2c(C#N)c(=O)n(C)c3ccc(C#N)nc23)C[C@H]1C (single isomer, unassigned) [Example 961]
5.82
C[C@@H]1CN(c2c(C#N)c(=O)n(C)c3ccc(C#N)nc23)[C@@H](C)CN1C(c1ccc(F)cc1)c1cnn(C)c1 (stereo partly drawn) [Example 846]
4.92
C[C@@H]1CN(c2cc(=O)n(C)c3ccc(C#N)nc23)[C@@H](C)CN1C(c1ccc(F)cc1)c1cnc(C2CC2)s1 (single isomer, unassigned) [Example 727]
4.43

1 = C[C@@H]1CN(c2c(C#N)c(=O)n(C)c3ccc(C#N)nc23)CCN1Cc1ccc(Cl)cc1
2 = C[C@@H]1CN(c2c(C#N)c(=O)n(C)c3ccc(C#N)nc23)[C@@H](C)CN1C(c1ccc(F)cc1)c1cncn1C (stereo partly drawn) [Example 848]
## Task Between 1 and 2 , whose measured pIC50 reads higher? In your reply, give the label of the chosen option.
## Result 1
(1: 5.92, 2: 3.64)
